# system-tested: T1, Flt-1 antigen (species not stated) (Homo sapiens (Human), UniProt P17948 27-656)
# T1 construct: also called sFlt-1; soluble Flt-1
# T1 sequence (P17948 other isoform, or with tags, fused parts or gaps limits assumed, form in doubt): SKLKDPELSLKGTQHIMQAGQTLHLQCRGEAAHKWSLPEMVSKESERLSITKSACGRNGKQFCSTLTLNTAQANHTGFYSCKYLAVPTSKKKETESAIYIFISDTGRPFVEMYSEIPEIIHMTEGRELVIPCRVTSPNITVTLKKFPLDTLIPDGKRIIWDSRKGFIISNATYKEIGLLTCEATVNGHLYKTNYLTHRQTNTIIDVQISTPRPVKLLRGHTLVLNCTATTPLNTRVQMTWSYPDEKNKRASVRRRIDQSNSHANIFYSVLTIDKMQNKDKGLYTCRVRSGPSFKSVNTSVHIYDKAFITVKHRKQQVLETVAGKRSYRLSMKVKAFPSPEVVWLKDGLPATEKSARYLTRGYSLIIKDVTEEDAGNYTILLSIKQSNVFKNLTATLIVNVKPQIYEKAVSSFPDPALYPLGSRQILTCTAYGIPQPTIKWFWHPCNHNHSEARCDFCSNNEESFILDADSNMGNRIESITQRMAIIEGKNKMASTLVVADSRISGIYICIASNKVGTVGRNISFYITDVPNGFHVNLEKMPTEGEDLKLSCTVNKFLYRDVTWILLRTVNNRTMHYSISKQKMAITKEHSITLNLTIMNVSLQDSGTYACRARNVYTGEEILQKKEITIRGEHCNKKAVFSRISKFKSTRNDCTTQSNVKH
# assay-summary: off-rate of Fabs, method not stated
Reported kd IMPROVEMENT (against parent 21B3) values are given for each entry in this list.
Could you respond with only the numeric value?

Example entries and their recorded answers appear below.
binder	measured
25D4 Fab (Fab, V domains shown, also called 25D4_VH) VH: EVQLLESGGGLVQPGGSLRLSCAASGFTFRDYSASWVRQAPGKGLEWVSAISWNGDSTYYAESVKGRFTISRDNAKNTLYLQMNSLRAEDTAVYYCAKSWATPIESLYYYGSDYWGQGTLVTVSS VL: SYELTQPLSVSVALGQTARITCGGNNIGSQTAQWYQQKPGQAPVLVIYANNRRPSGIPERFSGSKSGNTATLTISGAQAEDEADYYCQVWAASTQAIVFGGGTKLTVL	0.94
27H6 Fab (Fab, V domains shown, also called 27H6_VH) VH: ELQLVESGGGLVQPGGSLRLSCAASGFTFSDYSASWVRQAPGKGLEWVSAISWSGDSTYYAESVKGRFTIFRDNSKNTLYLQMNSLRAEDTAVYYCAKSWATPIESLYYYGSDYWGQGTLVTVSS VL: SYELTQPLSVSVALRQAAKITCGGNNIGSQTAQWYQQKPGQAPVLVIYANNRRPSGIPERFSGSKSGNTATLTISRAQAGDEADYYCQVWDGSTQAIVFGGGTKLTVL	0.96
27H9 Fab (Fab, V domains shown, also called 27H9_VH) VH: EVQLLESGGGLVQPGGSLRLSCAASGFTFRDYSMSWVRQAPGKGLEWVSAISWNGDSTYYAESAKGRFTISRDNSKNTLYLQMNSLRAEDTAVYYCAKSWATPIESLYYYGSDYWGQGTLVTVSS VL: SYELTQPLSVSVALRQTARITCGGNNIGSQTAQWYQQKPGQAPVLVIYANNRRPSGIPERFSGSKSGNTATLTISRAQAEDEADYYCQVWDESTQAIVFGGGTKLTVL	1.12

Could you tell me which kd IMPROVEMENT (against parent 21B3) is on file for 27H4 Fab (Fab, V domains shown, also called 27H4_VH) VH: ELQLVESGGGLVQPGGSLRLSCAASGFTFRDYSMSWVRQAPGKGLEWVSAISWNGDSTYYAESLKGRFTISRDNAKNTLYLQMNSLRAEDTAVYYCAKSWATPIESLYYYGSDYWGQGTLVTVSS VL: SYELTQPLSVSVALGQTARITCGGNNIGSQTAQWYQQKPGQAPVLVIYANNRRPSGIPERFSGSKSGNTATLTISRAQAEDEADYYCQVWEDSTQAIVFGGGTKLTVL ?
1.06
